# assayComment: Chemical stability (relative purity loss) of peptide compounds in buffer formulations (Table 6)
# Type: physicochemical
# conditionNotes: 50 mm hcl + acetonitrile, Buffer pH 1.1 (head; method: 50 mM HCl pH 1.2 + acetonitrile 3:1), 2° C. and 37° C., read-out: Chemical stability (relative purity loss), Buffer pH 1.1
Bridge positions count the residues as written; N and C are the ends. Square brackets hold non-standard residues; d marks the D form. Peptide text beside a SMILES is read from it. * marks the point of attachment. Trp(7-Me) = Cc1cccc2c(C[C@H](N)C(=O)O)c[nH]c12; 2Nal = N[C@@H](Cc1ccc2ccccc2c1)C(=O)O; 3Pal = N[C@@H](Cc1cccnc1)C(=O)O; 12Ado = NCCCCCCCCCCCC(=O)O; Thp = NC1(C(=O)O)CCOCC1; Me2NCH2CH2 = CN(C)CC*; Aib = CC(C)(N)C(=O)O; Sar = CNCC(=O)O
measuredAttribute: degraded at 24 h (%)
# value in %; strip the unit string

Q: Given Cc1cccc2c(C[C@@H]3NC(=O)CCCCCCCCCCCNC(=O)CC[C@@H](C(=O)N[C@@H](CC(N)=O)C(=O)N[C@@H](Cc4cccnc4)C(=O)N(C)CC(N)=O)NC(=O)C(C)(C)NC(=O)[C@H](Cc4ccc5ccccc5c4)NC(=O)[C@H](Cc4ccc(OCCN(C)C)cc4)NC(=O)C4(CCOCC4)NC(=O)[C@H](CCC(N)=O)NC3=O)c[nH]c12 [compound 2] ([12Ado][Trp(7-Me)]Q[Thp]Y(Me2NCH2CH2)[2Nal][Aib]EN[3Pal][Sar]-NH2; lactam N-8) , respond with its degraded at 24 h.
Result: 6.4

* * *

# assayComment: Solubility of peptide compounds in buffer formulations (Table 5)
# Type: physicochemical
# conditionNotes: aqueous buffer; 50 mM phosphate buffer pH 7.4, 2 h agitation, target 1 mg/ml; read-out: Solubility, Buffer pH 7.4
Numbered stars: 1 amine (or outer) side, 2 acyl side, 3 side chain; on linkers, the order of the positions; unused ones are H or OH. Bridge positions count the residues as written; N and C are the ends. Square brackets hold non-standard residues; d marks the D form. Peptide text beside a SMILES is read from it. * marks the point of attachment. Lys(Me,(CH2)4NMe(CH2)5CO) = CN(CCCCCC(=O)[*:3])CCCCN(C)CCCC[C@H](N[*:1])C(=O)[*:2]; Lys(Me,(CH2)4NMe(CH2)4CO) = CN(CCCCC(=O)[*:3])CCCCN(C)CCCC[C@H](N[*:1])C(=O)[*:2]; X3 = Cc1cccc2c(C[C@H](N[*:1])C(=O)[*:2])cn(C)c12; Trp(1-Me) = Cn1cc(C[C@H](N)C(=O)O)c2ccccc21; NH(2-(3-pyridyl)ethyl) = c1cncc(CCN*)c1; 2Nal = N[C@@H](Cc1ccc2ccccc2c1)C(=O)O; Thp = NC1(C(=O)O)CCOCC1; Me2NCH2CH2 = CN(C)CC*; Aib = CC(C)(N)C(=O)O
List of solubility at 2 h values.
# value in µg/mL; strip the unit string

compound="CN(C)CCOc1ccc(C[C@@H]2NC(=O)C3(CCOCC3)NC(=O)[C@H](CCC(N)=O)NC(=O)[C@H](Cc3cn(C)c4ccccc34)NC(=O)CCCCCN(C)CCCCN(C)CCCC[C@@H](C(=O)NCC(=O)NCCc3cccnc3)NC(=O)C(C)(C)NC(=O)[C@H](Cc3ccc4ccccc4c3)NC2=O)cc1 [compound 22] ([Trp(1-Me)]Q[Thp]Y(Me2NCH2CH2)[2Nal][Aib][Lys(Me,(CH2)4NMe(CH2)5CO)]G-{NH(2-(3-pyridyl)ethyl)}; lactam N-7)" observed=330

Query compound follows.
Q: Given Cc1cccc2c(C[C@@H]3NC(=O)CCCCN(C)CCCCN(C)CCCC[C@@H](C(=O)NCC(=O)NCCc4cccnc4)NC(=O)C(C)(C)NC(=O)[C@H](Cc4ccc5ccccc5c4)NC(=O)[C@H](Cc4ccc(OCCN(C)C)cc4)NC(=O)C4(CCOCC4)NC(=O)[C@H](CC(C)C)NC3=O)cn(C)c12 [compound 49] ([X3]L[Thp]Y(Me2NCH2CH2)[2Nal][Aib][Lys(Me,(CH2)4NMe(CH2)4CO)]G-{NH(2-(3-pyridyl)ethyl)}; lactam N-7) , respond with its solubility at 2 h.
Result: 40
